# EXPERIMENTAL_TARGET: AgBzz1-D2
# ASSAY_TEXT: SPOT peptide array binding signal intensity (averaged, normalized) (arbitrary units (background-subtracted, floor 0; scale differs between SH3 domains)); higher = stronger binding of the SH3 domain to the peptide
Definition: the class of an entry is the range in bucket 1 (below 40), bucket 2 (40 to below 60), bucket 3 (60 or more) that contains its SPOT peptide array binding signal intensity.

MAMRPIPPLPTESEY    bucket 1
AHFQPQRTAPKPPIS    bucket 2
VATSTSPKLPPRGKQ    bucket 3
GRSRLFPHSPLGRSS    bucket 1

In plain terms, what class is KKEKKPPKIPKKVYT ?
bucket 2

In plain terms, what class is NQARKPFLLPATELS ?
bucket 1

In plain terms, what class is RSLRKRPTSPSISGS ?
bucket 3

In plain terms, what class is GKFIPSRPAPKPPSS ?
bucket 1

In plain terms, what class is YLTRPLPSTPNEDSR ?
bucket 1

These data points were gathered from the supplement of paper PMC4466140.
